Tested on: SK-OV-3
ASSAY_INFO: NCI tumour cell line growth inhibition, 48 h
Calls of active or inactive are those of the source. Rule as the data show it: active = GI50 up to about 1.1 µM and inactive = higher.
Below: a set of entries, each annotated with reported GI50.

Here are 2 compounds together with their reported answers.
>>> df
                                   compound  tested_target      measured_result
0  Cc1cc2nc3c(C#N)c(-c4ccccc4)cc(Nc4ccc(Cl)cc4)n3c2cc1C        SK-OV-3  > 100 µM (inactive)
1  Oc1c([Si](c2ccccc2)(c2ccccc2)c2ccccc2)cc2ccccc2c1-c1c(O)c([Si](c2ccccc2)(c2ccccc2)c2ccccc2)cc2ccccc12        SK-OV-3  > 100 µM (inactive)

Next, consider the following compound.
Find GI50 for CC(=O)NNc1nc(C)c(C(=O)/C=C/c2ccc(Cl)cc2)s1 on SK-OV-3 and write it down.
> 100 µM (inactive)

---

Tested on: HOP-18
ASSAY_INFO: NCI tumour cell line growth inhibition, 48 h
The source made the active and inactive calls. Rule as the data show it: active = GI50 up to about 1.1 µM and inactive = higher.
Valid outcomes are listed here; reply with one: 1 (yes) = active, 0 (no) = inactive

>>> print(df.to_string())
                                 cpd_smiles      cat
0  Cc1cc(N)c2cc(NC(=O)CCCCCCCCC(=O)Nc3ccc4nc(C)cc(N)c4c3)ccc2n1   0 (no)
1         CN(C)c1[se]nc2c1c(=O)n(C)c(=O)n2C   0 (no)
2  Cc1c2cnccc2c(C)c2c1c1ccccc1n2CCCCCCNCc1ccccc1  1 (yes)
3     O=C(Nc1c(O)[nH]c(=S)[nH]c1=O)c1ccccc1   0 (no)
4  CC(=O)NNc1nc(C)c(C(=O)/C=C/c2ccc(Cl)cc2)s1   0 (no)

Look up the recorded call for CCN(CC)c1ccc(/N=C2/C=CC(=O)c3ncccc32)c(C)c1 in this test.
0 (no)

---

System: MCF7
ASSAY_INFO: NCI tumour cell line growth inhibition, 48 h
Calls of active or inactive are those of the source. Rule as the data show it: active = GI50 up to about 1.1 µM and inactive = higher.
Please reply with one of these outcomes: active, inactive

>>> print(df.to_string())
                                   compound       cat
0  Cc1ccccc1OC(C)C(=O)NN1C(=O)CSC1c1ccccc1 (stereo not given)  inactive
1  OC(c1nc2ccccc2[nH]1)C(O)C(O)C(O)c1nc2ccccc2[nH]1 (stereo not given)  inactive
2  O=C1C(Br)=CC2(C=C1Br)CCNC1=C2C(=O)c2[nH]cnc2C1=O  inactive
3          O=c1[nH]nc(-c2ccccc2)n1-c1ccncc1  inactive
4  CC[C@@H]1CC[C@@H]2[C@H](CC[C@]3(C)[C@@H](OC(C)=O)CC[C@@H]23)[C@H]1C(=O)OC  inactive
5  C[C@@H](NC(=O)OC1C=CC2(CC1)C(=O)N(C)c1ccccc12)c1cccc2ccccc12 (stereo not given in full)  inactive
6  CC1(C)OC2C(CO)OC(n3cnc(N)nc3=O)C2O1 (stereo not given)  inactive
7  CC(N/N=C(\S)N1CCCC1)c1cccnn1 (stereo not given)    active

Query: recorded result category for C[C@]12CC[C@H](O)CC1=CC[C@@H]1C2CC[C@]2(C)c3nn(-c4ccc(F)cc4)nc3CC12 (stereo not given in full) in this test
inactive

What is the recorded call for this compound in the test? Cc1ccc(C(=O)N/N=C(\N=N\c2ccccc2C(=O)O)c2ccc(N(C)C)cc2)cc1
inactive

Hello, I am checking results. What call was entered for C(=N\N=C1NCCN1)/c1ccc2ccccc2c1 ?
inactive

Please state the recorded outcome for this compound: O=C(c1cccs1)N(C(=O)N1CCC(c2ccccc2)CC1)c1ccccc1
inactive

Hi, do you know how C=C(C)C1CC(=O)C(C)=C(O)C1 (stereo not given) came out in this test?
inactive

Dear colleague, could you share the recorded outcome for CC1=Nn2c(nc3sc4c(c3c2=O)CCCC4)SC1 when you have a moment?
inactive

Please state the recorded outcome for this compound: COc1cccc(C2CC(=O)c3cccn32)c1 (stereo not given)
inactive
